Values from ChEMBL document CHEMBL1201862

System: DMS-114
Experiment: NCI tumour cell line growth inhibition, 48 h
Activity calls are given as the source filed them. No stated cut-off is given here; in the data, active = GI50 up to about 1.1 µM and inactive = higher.
Respond using exactly one of the listed classes: true for active, false for inactive

Answered cases to consult:
C=C1C(=O)OC2/C=C(\C)C3OC3/C=C(/C(=O)OC)C(OC(C)=O)C(OC(=O)C(C)(O)C(C)OC(C)=O)C12 (stereo not given) | false
c1ccc(SCCCC(Sc2ccccc2)Sc2ccccc2)cc1 | false
Cc1coc2c1C(=O)C(=O)c1ccccc1-2 | true
COc1cccc2c1C1(O)C2CCCCCCCCCC12OCCCO2 (stereo not given) | false

Shifting focus to the compound that follows.
Data request: Could you check what this test reported for COCC(=O)[C@]1(O)Cc2c(O)c3c(c(O)c2[C@@H](OC2CC(N)C(O)C(C)O2)C1)C(=O)c1c(OC)cccc1C3=O (stereo not given in full) ?
Data returned: true
